// values below are reported composite z-score
# System: Chordin-like protein 2 (CHRDL2)
# assay overview: compounds binding chordin-like 2 – biochemical, small-molecule microarray, 635 nm fluorescence, primary screen (AID 1126);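 also: printed compound slides probed with Chrdl2 protein at 4 µg/mL for 1 h at 4 C; score merges 667 nm emission intensity with signal to noise over three replicate slides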
# details: fluorescence 635 nm, higher = more signal
Answer using only a numeral; do not append any unit.

Worked set:
Task: Return reported composite z-score; argument: CCCCC(O)C1C=CC2C(=O)N(c3ccccc3)C(=O)C2N1Nc1ccccc1 (configuration not stated)
Result: -1.17

Task: And what about the molecule O=C1[C@@H]2[C@@H](CC(COc3ccccc3)=C([C@H](O)CCc3ccccc3)[C@@H]2CO)C(=O)N1Cc1ccccc1 ?
Result: 0.249

Task: And what about the molecule O=C1O[C@H](c2ccccc2)[C@H](c2ccccc2)N2[C@H]1[C@@H](C(=O)N1CCN(c3ncccn3)CC1)[C@]1(C(=O)Nc3ccc(C#CCCO)cc31)[C@H]2c1ccc(O)cc1 ?
Result: 0.0231

---
Task: Return reported composite z-score; argument: C=CCN1C(=O)[C@]2(O[C@H](CCn3cc([C@H](O)c4ccccc4)nn3)[C@@H]([Si](C)(C)c3ccc(OC)cc3)[C@@H]2C)c2cc(NC(=O)c3ccc(OC)cc3)ccc21
Result: 0.334

Task: And what about the molecule C=C(COC)/C(=C/C[C@@H](OC(C)=O)c1ccccc1OCCO)c1cnc2ccccc2c1 ?
Result: 0.765

Task: And what about the molecule COC(=O)[C@@]1(Cc2ccc(F)cc2)[C@H]2c3cc(C(=O)N(C)C)n(C)c3C[C@H]2CN1C(=O)c1ccccc1 ?
Result: -0.401

Task: And what about the molecule C=C(CCCC)/C(=C/C[C@@H](OC(C)=O)c1ccc(CO)o1)c1cnc2ccccc2c1 ?
Result: 1.03
